- system under test: T1, recombinant human CFD, His-tagged (human, UniProt P00746 26-253)
- T1 construct: also called rhCFD-His
- T1 sequence (P00746 26-253 limits assumed): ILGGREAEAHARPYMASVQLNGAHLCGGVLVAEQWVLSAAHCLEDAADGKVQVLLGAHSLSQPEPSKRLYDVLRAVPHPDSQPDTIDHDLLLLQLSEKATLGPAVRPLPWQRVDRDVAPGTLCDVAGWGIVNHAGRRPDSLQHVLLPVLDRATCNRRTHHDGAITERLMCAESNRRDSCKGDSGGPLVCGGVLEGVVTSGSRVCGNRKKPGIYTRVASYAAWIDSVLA
- test method notes: SPR MX96
test readout: Kd
Include the unit after the number when you answer.

binder: KCD123 (antibody, V domains shown, chimeric) VH: EVHLQQSGPELVKPGASVKISCKASGYTFTDFYKNWMRQRHGESLEWIGDINPNNGGTNYNQKFKGKATLTVDKSSSTAYMELRSLTSEDSAVYYCAREGPSFAYWGQGTLVTVSA VL: DVLMTQTPLSLPVSLGDQASISCRSSQTIVHSNGDTYLEWYLQKPGQSPNLLIYKVSNRFSGVPDRFSGSGSGTDFTLKISRVEAEDLGVYYCFQGSHVPPTFGGGTKLEIK
Kd: 1.3 nM
--
binder: KCD137 (antibody, V domains shown) VH: EVQLVESGGDLVKPGGSLKLSCAASGFTFSGYGMSWVRQIPDKRLEWVAISSRDNSFTYYPDSVKGRFTISRDNAKNTLYLQMSSLKSEDTALYFCTRHPYLPTGGYVMDYWGQGTSVTVSS VL: DIVMTQSHKFMSTSVGDRVSITCKASQDVGTAVAWYQQRPGQSPKLLIYWASTRHTGVPDRFTGSGSGTDFTLTVSNVQSEDLADYFCQQYTSYPLTFGAGTKLELK
Kd: 5.5 nM

Turning to the following binder.
Returns the measured Kd for the input binder. Input: KCD008 (antibody, V domains shown) VH: EVQLQQSGPELVKAGASVKMSCTASGFNIKDTYMHWVKQRPEQGLAWIGRIDPANGNIKYDPKFQGKATITADTSSNTAYLQLSSLTSDDTAVYYCTSAMDYWGQGTSVTVSS VL: QIVLTQSPEIMSASPGEKVTMTCSARSSVSYMYWYQQKPGSSPRLLIYDTSNLASGVPVRFSGSGSGTSYSLTISRMETEDAATYYCQQWSTYPFTFGSGTKLEIK 3.2 nM
